SYSTEM: human V1a receptor (Homo sapiens, UniProt P37288)
Sequence (P37288 whole entry): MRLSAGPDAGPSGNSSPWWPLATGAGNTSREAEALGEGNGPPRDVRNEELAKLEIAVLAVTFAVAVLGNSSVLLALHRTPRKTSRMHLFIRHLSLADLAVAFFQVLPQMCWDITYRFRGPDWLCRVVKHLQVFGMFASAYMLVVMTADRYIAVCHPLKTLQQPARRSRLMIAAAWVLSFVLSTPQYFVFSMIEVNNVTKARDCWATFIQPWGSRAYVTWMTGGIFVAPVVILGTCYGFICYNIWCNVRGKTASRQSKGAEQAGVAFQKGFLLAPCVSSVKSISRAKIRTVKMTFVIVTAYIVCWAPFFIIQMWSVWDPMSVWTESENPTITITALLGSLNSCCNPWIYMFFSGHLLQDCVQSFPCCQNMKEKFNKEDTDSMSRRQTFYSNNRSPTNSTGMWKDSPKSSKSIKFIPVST
TEST SUMMARY: Cellular in vitro assay for determining the vasopressin receptor activity (aequorin luminescence)
CONDITION INFO: CHO cell line transfected with the human V1a receptor; agonist [Arg8]-vasopressin; read-out: IC50 hV1a
pIC50 values for the compounds below.
Quick note: pIC50 values are minus log10 of concentrations in mol/L.

{"columns": ["COMPOUND", "ENDPOINT NAME", "NUMERIC RESULT"],
 "data": [
  ["O=C(Cn1nc(-c2ccc(Cl)cc2)n(C[C@H](O)C(F)(F)F)c1=O)NC(CO)c1cccc(F)c1F (stereo partly shown) [Example 95]", "pIC50", 7.24],
  ["CSCC(NC(=O)Cn1nc(-c2ccc(Cl)cc2)n(C[C@H](O)C(F)(F)F)c1=O)c1ccccc1C(F)(F)F (single isomer, unassigned) [Example 156]", "pIC50", 8.72],
  ["COc1cccc(C(CCO)NC(=O)Cn2nc(-c3ccc(Cl)cc3)n(C3CC3)c2=O)c1 (racemic) [Example 89]", "pIC50", 5.54]
]}

**Q:** Return reported pIC50; argument: Cc1ccccc1C(CCO)NC(=O)Cn1nc(-c2ccc(Cl)cc2)n(C[C@H](O)C(F)(F)F)c1=O (single isomer, unassigned) [Example 87]
**A:** 8.42

Data provenance is patent US8796324B2.
